The measured values listed here are drawn from patent US6525045B2.

tested on: AMPA receptors; experiment: Electrophysiological measurement of intensification of the agonist-induced current on cells expressing functional AMPA receptors; type: cell-based; design: key: + good; ++ very good activity; conditions: concentrations between 0.3 μmol and 300 μmol
MEASURED ATTRIBUTE: Effectiveness: Intensification of the agonist-induced current

CCN1Cc2cccc3scc(c23)S1(=O)=O; +
CN1Cc2ccc(Cl)c3scc(c23)S1(=O)=O; +
CN1Cc2c(F)ccc3scc(c23)S1(=O)=O; ++
CN1Cc2cccc3scc(c23)S1(=O)=O; ++
